Tested on: SF-295
experiment: NCI tumour cell line growth inhibition, 48 h
The source made the active and inactive calls. Rule as the data show it: active = GI50 up to about 1.1 µM and inactive = higher.
Items are presented alongside their recorded GI50.

| compound | GI50 |
| --- | --- |
| COc1cc(/C=C2\CCC/C(=C\c3cc(OC)c(O)c(OC)c3)C2=O)cc(OC)c1O | 2.03 µM (inactive) |

Query the reported GI50 for SF-295; item: CCc1ccccc1NC(=O)C1=C(C)NC(C)=C(C(=O)Nc2c(CC)cccc2CC)C1c1ccc2c(c1)OCO2 (stereo not given)
20.3 µM (inactive)

Query the reported GI50 for SF-295; item: O=C1Nc2c(ccc(Cl)c2I)C1=O
19.2 µM (inactive)

Values were extracted from ChEMBL document CHEMBL1201862.
